// IC50 lookup, one value per entry
# measured.target: Human immunodeficiency virus type 1 reverse transcriptase (Human immunodeficiency virus 1, UniProt Q72547, Y181I)
# run.description: Inhibition of HIV1 reverse transcriptase Y181I mutant by RNA-dependent DNA polymerase activity assay

| smiles.repr | IC50 |
| --- | --- |
| Cc1c(C)c(C)c(S(=O)(=O)n2c(=O)[nH]c3ccc(Cl)cc32)c(C)c1C | > 40 µM |
| Cc1cc(C)cc(S(=O)(=O)n2c(=O)[nH]c3ccc(Cl)nc32)c1 | 27 µM |
| Cc1cc(C)c(C)c(S(=O)(=O)n2c(=O)[nH]c3ccc(Cl)cc32)c1C | > 40 µM |
| Cc1cc(C)c(S(=O)(=O)n2c(=O)[nH]c3ccc(Cl)cc32)c(C)c1 | > 40 µM |

Let us move to another entry and its IC50.
QUERY: Entry under review: Cc1cc(C)cc(S(=O)(=O)n2c(=O)[nH]c3ccc(Cl)cc32)c1 . Reported IC50?
RESULT: > 40 µM

---

# run.description: Cytotoxicity in human MT4 cells assessed as reduction in cell viability
# Format: cell-based
CC50 values, listed per item

// known answers, use as guide
| compound | CC50 |
| --- | --- |
| Cc1ccc(S(=O)(=O)n2c(=O)[nH]c3ccc(Cl)cc32)c(C)c1 | 39.3 µM |
| Cc1cc(C)c(S(=O)(=O)n2c(=O)[nH]c3ccc(Cl)cc32)c(C)c1 | > 356 µM |
| Cc1ccc(S(=O)(=O)n2c(=O)[nH]c3ccc(Cl)cc32)cc1 | 134 µM |
| Cc1cccc(S(=O)(=O)n2c(=O)[nH]c3ccc(Cl)cc32)c1 | > 308 µM |
| O=c1[nH]c2ccc(Cl)cc2n1S(=O)(=O)c1cc(C(F)(F)F)cc(C(F)(F)F)c1 | 32.3 µM |

QUERY: What value of CC50 has been recorded for this entry: Cc1ccc(S(=O)(=O)n2c(=O)[nH]c3ccc(Cl)cc32)cc1C
RESULT: > 371 µM

QUERY: Need CC50 of Cc1ccnc2c1NC(=O)c1cccnc1N2C1CC1 [NEVIRAPINE] , thanks.
RESULT: > 15 µM

QUERY: Look up CC50 for this compound: O=C1Nc2ccc(Cl)cc2[C@@](C#CC2CC2)(C(F)(F)F)O1 [EFAVIRENZ]
RESULT: > 6 µM

QUERY: Please report the recorded CC50 for Cc1ccccc1S(=O)(=O)n1c(=O)[nH]c2ccc(Cl)cc21 .
RESULT: > 387 µM

QUERY: // returns reported CC50 for input COc1cccc(S(=O)(=O)n2c(=O)[nH]c3ccc(Cl)cc32)c1
RESULT: > 369 µM

---

# run.description: Cytotoxicity in human MT4 cells assessed as reduction in cell viability
# Type: cell-based
assay.metric: CC50

| smiles.repr | CC50 |
| --- | --- |
| Cc1cc(C)c(C)c(S(=O)(=O)n2c(=O)[nH]c3ccc(Cl)cc32)c1C | ≥ 343 µM |

QUERY: Which CC50 value is on record for O=c1[nH]c2ccc(Cl)cc2n1S(=O)(=O)c1cccc(OC(F)(F)F)c1 ?
RESULT: > 128 µM

QUERY: Which value of CC50 has been reported for O=c1[nH]c2ccc(Cl)cc2n1S(=O)(=O)c1cccc(C(F)(F)F)c1 in the records?
RESULT: > 332 µM

QUERY: Query: CC50; subject: Cc1ccc(C)c(S(=O)(=O)n2c(=O)[nH]c3ccc(Cl)cc32)c1
RESULT: > 371 µM

QUERY: For the compound Cc1c(C)c(C)c(S(=O)(=O)n2c(=O)[nH]c3ccc(Cl)cc32)c(C)c1C , what CC50 is on record?
RESULT: 236 µM

QUERY: Looking for the measured CC50 of Cc1cc(C)cc(S(=O)(=O)n2c(=O)[nH]c3ccc(Cl)nc32)c1 , can you help?
RESULT: > 272 µM

---

Entries with their measured IC50, system UniProt:Q72547:
Express the result in nM but write the number alone.

Reference set, count: 3
| smiles.repr | unit.of.measure | IC50 |
| --- | --- | --- |
| Cc1ccc(S(=O)(=O)n2c(=O)[nH]c3ccc(Cl)cc32)cc1 | nM | 149 |
| Cc1cc(C)c(C)c(S(=O)(=O)n2c(=O)[nH]c3ccc(Cl)cc32)c1C | nM | 40 |
| Cc1cc(C)c(S(=O)(=O)n2c(=O)[nH]c3ccc(Cl)cc32)c(C)c1 | nM | 1.2 |

QUERY: Name the reported IC50 value associated with the compound Cc1cccc(S(=O)(=O)n2c(=O)[nH]c3ccc(Cl)cc32)c1
RESULT: 21

---

# measured.target: Human immunodeficiency virus type 1 reverse transcriptase (Human immunodeficiency virus 1, UniProt Q72547, K103N)
# run.description: Inhibition of HIV1 reverse transcriptase K103N mutant by RNA-dependent DNA polymerase activity assay
As shown below, each of these compounds has a reported IC50 value.

// solved cases for IC50 follow
| smiles.repr | IC50 |
| --- | --- |
| Cc1c(C)c(C)c(S(=O)(=O)n2c(=O)[nH]c3ccc(Cl)cc32)c(C)c1C | 6.7 µM |
| Cc1ccc(C)c(S(=O)(=O)n2c(=O)[nH]c3ccc(Cl)cc32)c1 | > 40 µM |
| Cc1cc(C)c(C)c(S(=O)(=O)n2c(=O)[nH]c3ccc(Cl)cc32)c1C | > 40 µM |

In the following, a different compound is considered.
QUERY: Please give the measured IC50 for this compound: Cc1ccc(S(=O)(=O)n2c(=O)[nH]c3ccc(Cl)cc32)cc1C
RESULT: 2.61 µM

---

# key: entry, value: selectivity ratio
# run.description: Selectivity index, ratio of CC50 for human MT4 cells to EC50 for HIV1 3B
# Assay type: toxicity, cell-based
# assay.setup: read-out: Ratio CC50/EC50

See these solved cases before continuing.
| smiles.repr | assay.metric | result |
| --- | --- | --- |
| Cc1cc(C)c(C)c(S(=O)(=O)n2c(=O)[nH]c3ccc(Cl)cc32)c1C | selectivity ratio | > 5410 |
| Cc1cc(C)cc(S(=O)(=O)n2c(=O)[nH]c3ccc(Cl)nc32)c1 | selectivity ratio | > 10500 |

QUERY: I'd like to know its selectivity ratio. The molecule in question is COc1cccc(S(=O)(=O)n2c(=O)[nH]c3ccc(Cl)cc32)c1
RESULT: > 10500

QUERY: Using the record for Cc1cc(C)c(S(=O)(=O)n2c(=O)[nH]c3ccc(Cl)cc32)c(C)c1 , report its selectivity ratio.
RESULT: > 355

QUERY: Quick one: selectivity ratio for Cc1c(C)c(C)c(S(=O)(=O)n2c(=O)[nH]c3ccc(Cl)cc32)c(C)c1C ?
RESULT: 1830

---

# run.description: Selectivity index, ratio of CC50 for human MT4 cells to EC50 for HIV1 3B
# Assay type: toxicity, cell-based
# assay.setup: read-out: Ratio CC50/EC50
# selectivity ratio per record follows
I only need the number, thanks.

QUERY: Look up selectivity ratio for this compound: Cc1cc(C)cc(S(=O)(=O)n2c(=O)[nH]c3ccc(Cl)cc32)c1
RESULT: 17800

QUERY: Look up selectivity ratio: Cc1ccc(S(=O)(=O)n2c(=O)[nH]c3ccc(Cl)cc32)c(C)c1
RESULT: 327

QUERY: Please give the measured selectivity ratio for this compound: Cc1ccc(S(=O)(=O)n2c(=O)[nH]c3ccc(Cl)cc32)cc1
RESULT: 2900

QUERY: Endpoint output: selectivity ratio of O=c1[nH]c2ccc(Cl)cc2n1S(=O)(=O)c1cc(C(F)(F)F)cc(C(F)(F)F)c1 . Value?
RESULT: 104

---

# measured.target: Human immunodeficiency virus type 1 reverse transcriptase (Human immunodeficiency virus 1, UniProt Q72547, L100I)
# run.description: Inhibition of HIV1 reverse transcriptase L100I mutant by RNA-dependent DNA polymerase activity assay
pIC50: −log10 of the molar value.
Label Y when pIC50 is at or above 7; otherwise label N.

| smiles.repr | group.label |
| --- | --- |
| Cc1cc(C)cc(S(=O)(=O)n2c(=O)[nH]c3ccc(Cl)cc32)c1 | Y |
| Cc1ccc(S(=O)(=O)n2c(=O)[nH]c3ccc(Cl)cc32)cc1C | Y |
| Cc1cc(C)c(C)c(S(=O)(=O)n2c(=O)[nH]c3ccc(Cl)cc32)c1C | N |
| Cc1cc(C)c(S(=O)(=O)n2c(=O)[nH]c3ccc(Cl)cc32)c(C)c1 | Y |
| COc1cccc(S(=O)(=O)n2c(=O)[nH]c3ccc(Cl)cc32)c1 | N |

Let's switch to this compound now.
QUERY: Assess whether reported pIC50 for Cc1ccc(C)c(S(=O)(=O)n2c(=O)[nH]c3ccc(Cl)cc32)c1 sits at 7 or higher.
RESULT: N
